Listed next: entries and their corresponding tissue to tissue ratio at 72 h.
Assay: in vivo
Set-up: species or system mice
Conditions: male, NOD.Cg-Rag1tm1Momll2rgtm1Wjl/SzJ (NRG), mouse, iv, total radioactivity, Ratio Tumor-to-Bone
Where a SMILES comes first, the peptide text is derived from it. Bridges are numbered along the chain shown (N, C = ends). [ ]: non-standard residue; d: D form. The star is where a group is joined. X3 = O=C(O)CN1CCN(CC(=O)O)CCN(CC(=O)N[C@@H](CS(=O)(=O)O)C(=O)N[C@@H](CCCCNC(=O)CCCc2ccc(Br)cc2)C(=O)*)CCN(CC(=O)O)CC1; X1 = O=C(O)CN1CCN(CC(=O)O)CCN(CC(=O)N[C@@H](CS(=O)(=O)O)C(=O)N[C@@H](CCCCNC(=O)CCCc2ccc(I)cc2)C(=O)*)CCN(CC(=O)O)CC1; 2Nal = N[C@@H](Cc1ccc2ccccc2c1)C(=O)O; Lys(iPr) = CC(C)NCCCC[C@H](N)C(=O)O
parameter: tissue to tissue ratio at 72 h

CC(C)NCCCC[C@H](NC(=O)[C@H]1CCC(=O)N[C@@H](CCCCNC(=O)[C@H](CCCCNC(=O)CCCc2ccc(Br)cc2)NC(=O)[C@H](CS(=O)(=O)O)NC(=O)CN2CCN(CC(=O)O)CCN(CC(=O)O)CCN(CC(=O)O)CC2)C(=O)N[C@@H](Cc2ccc(O)cc2)C(=O)N[C@@H](CCCCNC(C)C)C(=O)N[C@H](CCCNC(=N)N)C(=O)N[C@@H](Cc2ccc3ccccc3c2)C(=O)N[C@H](C)C(=O)N1)C(N)=O [[^177Lu]Lu-BL34L20, metal not drawn] (K(X3)Y[Lys(iPr)][dR][2Nal][dA][dE][Lys(iPr)]-NH2; lactam N-7)    44.3
CC(C)NCCCC[C@H](NC(=O)[C@H]1CCC(=O)N[C@@H](CCCCNC(=O)[C@H](CCCCNC(=O)CCCc2ccc(I)cc2)NC(=O)[C@H](CS(=O)(=O)O)NC(=O)CN2CCN(CC(=O)O)CCN(CC(=O)O)CCN(CC(=O)O)CC2)C(=O)N[C@@H](Cc2ccc(O)cc2)C(=O)N[C@@H](CCCCNC(C)C)C(=O)N[C@H](CCCNC(=N)N)C(=O)N[C@@H](Cc2ccc3ccccc3c2)C(=O)N[C@H](C)C(=O)N1)C(N)=O [[^177Lu]Lu-BL34L11, metal not drawn] (K(X1)Y[Lys(iPr)][dR][2Nal][dA][dE][Lys(iPr)]-NH2; lactam N-7)    53.7

* * *

Assay: in vivo
Parameters: species or system mice
Settings: male, NOD.Cg-Rag1tm1Mom Il2rgtm1Wjl/SzJ (NRG), mouse, iv, total radioactivity, Ratio Tumor-to-Pancreas
Where a SMILES comes first, the peptide text is derived from it. Bridges are numbered along the chain shown (N, C = ends). Side-chain parts run from the residue outwards. [ ]: non-standard residue; d: D form. The star is where a group is joined. X4 = O=C(O)CN1CCN(CC(=O)O)CCN(CC(=O)N[C@@H](CS(=O)(=O)O)C(=O)NCCCC[C@H](NC(=O)CNC(=O)CCCc2ccc(Cl)cc2)C(=O)*)CCN(CC(=O)O)CC1; X3 = O=C(O)CN1CCN(CC(=O)O)CCN(CC(=O)N[C@@H](CS(=O)(=O)O)C(=O)N[C@@H](CCCCNC(=O)CCCc2ccc(Br)cc2)C(=O)*)CCN(CC(=O)O)CC1; X5 = O=C(O)CN1CCN(CC(=O)O)CCN(CC(=O)N[C@@H](CS(=O)(=O)O)C(=O)N[C@@H](CCCCNC(=O)CCCc2ccc(Cl)cc2)C(=O)*)CCN(CC(=O)O)CC1; X1 = O=C(O)CN1CCN(CC(=O)O)CCN(CC(=O)N[C@@H](CS(=O)(=O)O)C(=O)N[C@@H](CCCCNC(=O)CCCc2ccc(I)cc2)C(=O)*)CCN(CC(=O)O)CC1; X6 = COc1ccc(CCCC(=O)NCCCC[C@H](NC(=O)[C@H](CS(=O)(=O)O)NC(=O)CN2CCN(CC(=O)O)CCN(CC(=O)O)CCN(CC(=O)O)CC2)C(=O)*)cc1; X7 = COc1ccc(CCCC(=O)NCCCC[C@H](NC(=O)CN2CCN(CC(=O)O)CCN(CC(=O)O)CCN(CC(=O)O)CC2)C(=O)*)cc1; DOTA = O=C(O)CN1CCN(CC(=O)O)CCN(CC(=O)*)CCN(CC(=O)O)CC1; NMeLys(iPr) = CN[C@@H](CCCCNC(C)C)C(=O)O; 2Nal = N[C@@H](Cc1ccc2ccccc2c1)C(=O)O; Lys(iPr) = CC(C)NCCCC[C@H](N)C(=O)O; Cya = N[C@@H](CS(=O)(=O)O)C(=O)O
parameter: tissue to tissue ratio at 1 h

CC(C)NCCCC[C@H](NC(=O)[C@H]1CCC(=O)N[C@@H](CCCCNC(=O)[C@H](CCCCNC(=O)[C@H](CS(=O)(=O)O)NC(=O)CN2CCN(CC(=O)O)CCN(CC(=O)O)CCN(CC(=O)O)CC2)NC(=O)CNC(=O)CCCc2ccc(Cl)cc2)C(=O)N[C@@H](Cc2ccc(O)cc2)C(=O)N[C@@H](CCCCNC(C)C)C(=O)N[C@H](CCCNC(=N)N)C(=O)N[C@@H](Cc2ccc3ccccc3c2)C(=O)N[C@H](C)C(=O)N1)C(N)=O [[68Ga]Ga-BL34T1, metal not drawn] (K(X4)Y[Lys(iPr)][dR][2Nal][dA][dE][Lys(iPr)]-NH2; lactam N-7)    10.1
CC(C)NCCCC[C@H](NC(=O)[C@@H]1CCSc2c3cccc([N+](=O)[O-])c3cn2[C@@H](CCCCNC(=O)[C@H](CS(=O)(=O)O)NC(=O)CN2CCN(CC(=O)O)CCN(CC(=O)O)CCN(CC(=O)O)CC2)C(=O)CC(Cc2ccc(O)cc2)C(=O)N[C@@H](CCCCNC(C)C)C(=O)N[C@H](CCCNC(=N)N)C(=O)N[C@@H](Cc2ccc3ccccc3c2)C(=O)N[C@H](C)C(=O)N1)C(N)=O (some centres unmarked) [[^68Ga]Ga-3NOPA-BL34L2, metal not drawn]    38.1
COc1ccc(CCCC(=O)NCCCC[C@H](NC(=O)CN2CCN(CC(=O)O)CCN(CC(=O)O)CCN(CC(=O)O)CC2)C(=O)N[C@@H](CS(=O)(=O)O)C(=O)NCCCC[C@@H]2NC(=O)CC[C@H](C(=O)N[C@@H](CCCCNC(C)C)C(N)=O)NC(=O)[C@@H](C)NC(=O)[C@H](Cc3ccc4ccccc4c3)NC(=O)[C@@H](CCCNC(=N)N)NC(=O)[C@H](CCCCNC(C)C)NC(=O)[C@H](Cc3ccc(O)cc3)NC2=O)cc1 [[68Ga]Ga-BL34L6, metal not drawn] (K([Cya-X7])Y[Lys(iPr)][dR][2Nal][dA][dE][Lys(iPr)]-NH2; lactam N-7)    75.3
CC(C)NCCCC[C@H](NC(=O)[C@H]1CCC(=O)N[C@@H](CCCCNC(=O)[C@H](CCCCNC(=O)CCCc2ccc(Br)cc2)NC(=O)[C@H](CS(=O)(=O)O)NC(=O)CN2CCN(CC(=O)O)CCN(CC(=O)O)CCN(CC(=O)O)CC2)C(=O)N[C@@H](Cc2ccc(O)cc2)C(=O)N[C@@H](CCCCNC(C)C)C(=O)N[C@H](CCCNC(=N)N)C(=O)N[C@@H](Cc2ccc3ccccc3c2)C(=O)N[C@H](C)C(=O)N1)C(N)=O [[^177Lu]Lu-BL34L20, metal not drawn] (K(X3)Y[Lys(iPr)][dR][2Nal][dA][dE][Lys(iPr)]-NH2; lactam N-7)    3.77
CC(C)NCCCC[C@H](NC(=O)[C@H]1CCC(=O)N[C@@H](CCCCNC(=O)[C@H](CCCCNC(=O)CCCc2ccc(I)cc2)NC(=O)[C@H](CS(=O)(=O)O)NC(=O)CN2CCN(CC(=O)O)CCN(CC(=O)O)CCN(CC(=O)O)CC2)C(=O)N[C@@H](Cc2ccc(O)cc2)C(=O)N[C@@H](CCCCNC(C)C)C(=O)N[C@H](CCCNC(=N)N)C(=O)N[C@@H](Cc2ccc3ccccc3c2)C(=O)N[C@H](C)C(=O)N1)C(N)=O [[^68Ga]Ga-BL34L11, metal not drawn] (K(X1)Y[Lys(iPr)][dR][2Nal][dA][dE][Lys(iPr)]-NH2; lactam N-7)    3.91
CC(C)NCCCC[C@H](NC(=O)[C@H]1CCC(=O)N[C@@H](CCCCNC(=O)[C@H](CS(=O)(=O)O)NC(=O)CN2CCN(CC(=O)O)CCN(CC(=O)O)CCN(CC(=O)O)CC2)C(=O)N[C@@H](Cc2ccc(O)cc2)C(=O)N(C)[C@@H](CCCCNC(C)C)C(=O)N[C@H](CCCNC(=N)N)C(=O)N[C@@H](Cc2ccc3ccccc3c2)C(=O)N[C@H](C)C(=O)N1)C(N)=O [[^68Ga]Ga-BL34N1, metal not drawn] (K([Cya-DOTA])Y[NMeLys(iPr)][dR][2Nal][dA][dE][Lys(iPr)]-NH2; lactam N-7)    146
COc1ccc(CCCC(=O)NCCCC[C@H](NC(=O)[C@H](CS(=O)(=O)O)NC(=O)CN2CCN(CC(=O)O)CCN(CC(=O)O)CCN(CC(=O)O)CC2)C(=O)NCCCC[C@@H]2NC(=O)CC[C@H](C(=O)N[C@@H](CCCCNC(C)C)C(N)=O)NC(=O)[C@@H](C)NC(=O)[C@H](Cc3ccc4ccccc4c3)NC(=O)[C@@H](CCCNC(=N)N)NC(=O)[C@H](CCCCNC(C)C)NC(=O)[C@H](Cc3ccc(O)cc3)NC2=O)cc1 [[^68Ga]Ga-BL34L7, metal not drawn] (K(X6)Y[Lys(iPr)][dR][2Nal][dA][dE][Lys(iPr)]-NH2; lactam N-7)    9.07
CC(C)NCCCC[C@H](NC(=O)[C@H]1CCC(=O)N[C@@H](CCCCNC(=O)[C@H](CCCCNC(=O)CCCc2ccc(Cl)cc2)NC(=O)[C@H](CS(=O)(=O)O)NC(=O)CN2CCN(CC(=O)O)CCN(CC(=O)O)CCN(CC(=O)O)CC2)C(=O)N[C@@H](Cc2ccc(O)cc2)C(=O)N[C@@H](CCCCNC(C)C)C(=O)N[C@H](CCCNC(=N)N)C(=O)N[C@@H](Cc2ccc3ccccc3c2)C(=O)N[C@H](C)C(=O)N1)C(N)=O [[^68Ga]Ga-BL34L16, metal not drawn] (K(X5)Y[Lys(iPr)][dR][2Nal][dA][dE][Lys(iPr)]-NH2; lactam N-7)    13.6
